- Method notes: Intrinsic clearance in human hepatic microsomes assessed per mg protein up to 30 mins in presence of NADPH by UPLC-MS method
- Assay type: ADME
- Condition info: liver microsomes, read-out: CLH
Listed here are compounds together with their documented microsomal CLint.

Consider the reported microsomal CLint for these compounds:
Compound: CCCN(CCC)C(=O)Cc1c(-c2ccc(CCCF)cc2)nn2c(C)cc(C)nc12
microsomal CLint: > 1000 µL/min/mg
//
Compound: CCN(CC)C(=O)Cc1c(-c2ccc(CCCF)cc2)nn2c(C)cc(C)nc12
microsomal CLint: 241 µL/min/mg

Problem: Entry Cc1cc(C)n2nc(-c3ccc(CCCF)cc3)c(CC(=O)N(C)Cc3ccccn3)c2n1 has what microsomal CLint?
Solution: 270 µL/min/mg

Problem: Entry Cc1cc(C)n2nc(-c3ccc(CCCF)cc3)c(CC(=O)N3CCCCC3)c2n1 has what microsomal CLint?
Solution: 424 µL/min/mg

Problem: Entry Cc1cc(C)n2nc(-c3ccc(CCCF)cc3)c(CC(=O)N(C)Cc3cccnc3)c2n1 has what microsomal CLint?
Solution: 862 µL/min/mg

Problem: Entry CCCN(C)C(=O)Cc1c(-c2ccc(CCCF)cc2)nn2c(C)cc(C)nc12 has what microsomal CLint?
Solution: 321 µL/min/mg

Problem: Entry CCN(CC)C(=O)Cc1c(-c2ccc(OCCF)cc2)nn2c(C)cc(C)nc12 [DPA-714] has what microsomal CLint?
Solution: 68 µL/min/mg

Problem: Entry Cc1cc(C)n2nc(-c3ccc(CCCF)cc3)c(CC(=O)N(C)CCc3ccccc3)c2n1 has what microsomal CLint?
Solution: > 1000 µL/min/mg

Problem: Entry Cc1cc(C)n2nc(-c3ccc(CCCF)cc3)c(CC(=O)N(C)Cc3ccccc3)c2n1 has what microsomal CLint?
Solution: > 1000 µL/min/mg

* * *

Listed here are compounds together with their documented logD.
- Method notes: n-Octanol-buffer partition coefficient, log D of the compound at pH 7.4 by HPLC method
- Type: physicochemical
Lab note: write the figure by itself, no unit.

Consider the reported logD for these compounds:
Line notation: Cc1cc(C)n2nc(-c3ccc(CCCF)cc3)c(CC(=O)N3CCCCC3)c2n1
logD: 3.56
//
Line notation: Cc1cc(C)n2nc(-c3ccc(CCCF)cc3)c(CC(=O)NC3CC3)c2n1
logD: 2.69
//
Line notation: Cc1cc(C)n2nc(-c3ccc(CCCF)cc3)c(CC(=O)N(C)CCc3ccccc3)c2n1
logD: 4.08

Problem: Entry Cc1cc(C)n2nc(-c3ccc(CCCF)cc3)c(CC(=O)N(C)C)c2n1 has what logD?
Solution: 2.68

Problem: Entry Cc1cc(C)n2nc(-c3ccc(CCCF)cc3)c(CC(=O)N3CCOCC3)c2n1 has what logD?
Solution: 2.56

Problem: Entry Cc1cc(C)n2nc(-c3ccc(CCCF)cc3)c(CC(=O)N3CCCC3)c2n1 has what logD?
Solution: 3.04
